test system: MCF-7 (ER + breast); assay: Colorimetric cell proliferation assay in MCF-7; assay type: cell-based; conditions: 72-h incubations performed in triplicate
reported-property: IC50 (µM)
The reply should be a number in µM, with the unit left off.

Q) State the recorded IC50 for this entry: N.N.[Cl][Pt][Cl] [cispiatin, cis-diamminedichloroplatinum]
A) 12

###

system: PANC-1 (pancreatic); assay: Colorimetric cell proliferation assay in PANC-1; assay type: cell-based; conditions: 72-h incubations performed in triplicate
reported-property: IC50 (µM)
# number only, unit µM dropped from output

Q) Notebook: pull reported IC50 for PANC-1 (pancreatic), entry N.N.[Cl][Pt][Cl] [cispiatin, cis-diamminedichloroplatinum]
A) 6.6
